Measured IC50 by item
Target: human P2X3 receptor (Homo sapiens (Human), UniProt P56373)
Sequence (P56373 whole entry): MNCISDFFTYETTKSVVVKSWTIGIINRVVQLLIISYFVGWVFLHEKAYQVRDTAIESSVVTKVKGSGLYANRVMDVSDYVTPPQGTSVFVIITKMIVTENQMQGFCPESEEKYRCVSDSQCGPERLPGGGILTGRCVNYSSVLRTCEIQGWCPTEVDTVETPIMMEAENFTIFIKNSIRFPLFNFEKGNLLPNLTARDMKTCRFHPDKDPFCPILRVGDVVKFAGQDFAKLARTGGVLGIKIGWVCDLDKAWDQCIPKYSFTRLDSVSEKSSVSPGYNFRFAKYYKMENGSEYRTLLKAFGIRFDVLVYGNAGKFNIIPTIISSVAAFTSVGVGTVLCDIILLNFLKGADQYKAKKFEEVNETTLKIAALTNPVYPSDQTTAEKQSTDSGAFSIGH
Assay: Evaluation of human P2X3 receptor inhibitory activity (Test Example 1-1, FDSS 3000, 96-well, 50 nM ATP)
Type: cell-based
Conditions: human P2X3 receptor in C6BU-1 cells; Test Example 1-1 (compounds I-001 to I-300)

Please review the following examples before continuing.
CCC(=O)Nc1c[nH]/c(=N\c2ccc(Oc3cncc(C)n3)cc2)n(Cc2ccc(Cl)cc2)c1=O = 40 nM
CCc1c[nH]/c(=N\c2ccc(Oc3cccc(C(=O)O)n3)cc2)n(Cc2ccc(Cl)cc2)c1=O = 35 nM
CCn1c(=O)cc(Nc2ccc(Oc3cccc(C(=O)O)n3)c(F)c2)n(Cc2ccc(Cl)cc2)c1=O = 1 nM
Cc1nc(Nc2cc(=O)n(C[C@H](C)C(=O)O)c(=O)n2Cc2ccc(Cl)cc2)ccc1Oc1cccc(F)c1 = 58 nM
CCC(=O)Nc1c[nH]/c(=N\c2ccc(Oc3ccc(C)nn3)cc2)n(Cc2ccc(Cl)cc2)c1=O = 26 nM
CCn1c(=O)cc(Nc2cnc(Oc3cccc(C(=O)O)c3)cn2)n(Cc2ccc(Cl)cc2)c1=O = 168 nM

Let us move to another entry and its IC50.
Form entry - test system: human P2X3 receptor (Homo sapiens (Human), UniProt P56373); read-out: IC50; compound: CCC(=O)Nc1c[nH]/c(=N\c2ccc(Oc3cccc(C(N)=O)n3)cc2)n(Cc2ccc(Cl)cc2)c1=O 9 nM
